RP-LC retention time values for the compounds below.
assay: gradient 5% acetonitrile 3 min, to 50% in 2 min, to 85% in 15 min, held 3 min, 100 µL/min; conditions: column: Zorbax Extend-C18 2.1 x 50 mm; eluents: water / acetonitrile, 0.1% formic acid
measured_quantity: RP-LC retention time (s)

COCCN(CCOC)C(=O)C12CCC(C)(C(=O)C1)C2(C)C (centres undefined): 706
CCC(C)n1[nH]c(=O)c2c1NC(=O)CSC2c1ccc(OC)c(OC)c1 (centres undefined): 654
COc1ccccc1C1NC(=O)NC(C)=C1C(=O)OC1CCCC1C (centres undefined): 924
CCOCCCNC(=O)N1CCN(Cc2nc3cccnc3n2-c2cc(C)cc(C)c2)CC1: 653
COc1ccc(N2CCN(C(=O)C3CC(=O)N(c4ccc5oc(C)nc5c4)C3)CC2)cc1 (centres undefined): 678
O=C(Nc1ccc2c(c1)CN(C(=O)c1cccs1)CC2)c1ccccc1C(F)(F)F: 821
CCn1cc(S(=O)(=O)N2CCN(c3ccccc3)CC2)c2cccnc21: 969
O=S(=O)(c1cccnc1)N1CCc2[nH]nc(-c3ccc(F)cc3)c2C1: 740
CC1(C)COCN1S(=O)(=O)c1ccc(C(=O)Nc2nnc(-c3ccc(F)cc3)o2)cc1: 811

====

assay: gradient 5% acetonitrile 3 min, to 50% in 2 min, to 85% in 15 min, held 3 min, 100 µL/min; conditions: column: Zorbax Extend-C18 2.1 x 50 mm; eluents: water / acetonitrile, 0.1% formic acid
measured_quantity: RP-LC retention time (s)

O=C(NCc1cccs1)c1nc2ccccn2c1-c1ccsc1: 830
O=C(NC1CC1)C1CCCN(c2cnc3nccnc3c2)C1 (stereo not given): 592
COc1ccc(NC(=O)CSc2nccc(N3CCN(c4cc(C)ccc4C)CC3)n2)cc1OC: 774
CCC(C)NC(=O)C1CCN(c2cnc(N3CCN(CC)CC3)nc2)CC1 (stereo not given): 575
COc1ccc(OC)c(-n2cc(C(=O)O)c3c2C(C(F)(F)F)CC(=O)N3)c1 (stereo not given): 730
O=C(NC1CCCCCC1)c1cccc(-c2nccnc2N2CCCC2)c1: 1000
COC[C@@H]1CN(Cc2ccc(C#N)cc2)C[C@H]1c1ccccn1: 553
O=C1CCCc2cc(S(=O)(=O)N3CCN(c4ccccn4)CC3)ccc2N1: 589
CCOC(=O)c1ccc(NC(=O)N2CCCC2c2c(C)noc2C)cc1 (stereo not given): 801
C=CCNC(=O)c1c2c(nc3ccc(C)cc13)CCC2: 606

====

test: gradient 5% acetonitrile 3 min, to 50% in 2 min, to 85% in 15 min, held 3 min, 100 µL/min; settings: column: Zorbax Extend-C18 2.1 x 50 mm; eluents: water / acetonitrile, 0.1% formic acid
RP-LC retention time values for the molecules below.
measured_quantity: RP-LC retention time (s)

Cc1cc(C)cc(-n2ccnc(NC(=O)Nc3cccc(F)c3)c2=O)c1: 1020
COc1ccc(CNC(=O)C2(C)CCN(S(=O)(=O)c3ccc(Br)s3)CC2)cc1: 961
CNC(=O)Nc1cccnc1N1CCCCC1: 544
Cc1ccc(CNC(=O)c2ccc3ccnc(N4CCN(c5ccc(F)cc5)CC4)c3c2)o1: 828
O=C(NCc1ccc(F)c(Cl)c1)C1=C2CCCN2c2ccc(F)cc2S1(=O)=O: 934
CCC(=O)N(Cc1ccc(F)cc1)C(C)C(=O)c1c(C)c(C(=O)OC)n(C)c1C (centres undefined): 922
COCCc1noc(-c2nc(-c3ccc(OC)cc3)no2)n1: 976
CN1CCN(CCCNC(=O)CN2C(=O)C3CCCCN3c3ccc(C(=O)N(C)C)cc32)CC1 (centres undefined): 572
COc1ccc(CC(=O)Nc2c3c(nn2-c2ccc([N+](=O)[O-])cc2)CSC3)cc1OC: 777
